For each record, write down the corresponding melting point.
One number for each entry, in °C.

CC1(C)C2CC[C@@]1(CS(=O)(=O)N[C@@H](Cc1ccc(-c3cccc(Nc4ncccc4[N+](=O)[O-])c3)cc1)C(=O)O)C(=O)C2 ... 207
Cc1cc(C)c(S(=O)(=O)N[C@@H](Cc2ccc(-c3cccc(NC(=O)Nc4nncs4)c3)cc2)C(=O)O)c(C)c1 ... 202
CC1(C)C2CC[C@@]1(CS(=O)(=O)N[C@@H](Cc1ccc(-c3ccc(NC(=O)N=c4[nH]c5ccccc5[nH]4)cc3)cc1)C(=O)O)C(=O)C2 ... 222

For each of the compounds below, state melting point.
1. Cc1cc(C)c(S(=O)(=O)N[C@@H](Cc2ccc(-c3cccc(Nc4c(NC5CC5)c(=O)c4=O)c3)cc2)C(=O)O)c(C)c1
2. COc1ccc(-c2ccc(NC(=O)NCc3ccccc3)cc2)cc1S(=O)(=O)NC(CC(=O)O)c1ccccc1 (stereo not shown)
3. COc1ccc2[nH]/c(=N\C(=O)Nc3cccc(-c4ccc(C[C@H](NS(=O)(=O)c5c(C)cc(C)cc5C)C(=O)O)cc4)c3)[nH]c2c1
4. O=C(O)C[C@@H](NS(=O)(=O)c1cccc(-c2cccc(NC(=O)NCc3ccc(C(F)(F)F)cc3)c2)c1)c1ccccc1
5. C[C@@H](NS(=O)(=O)c1cccc(-c2cccc(NC(=O)N=c3[nH]c4ccccc4[nH]3)c2)c1)C(=O)O
6. CCCCNC(=O)Nc1cccc(-c2ccc(OC)c(S(=O)(=O)N[C@@H](CC(=O)O)c3ccccc3)c2)c1

Result:
1. 164
2. 150
3. 215
4. 186
5. 158
6. 156

Q: Quick check: melting point of COc1ccc(-c2cccc(NC(=O)N=c3[nH]cc[nH]3)c2)cc1S(=O)(=O)NC(CC(=O)O)c1ccccc1 (stereo not shown) ?
Result: 209
